# STUDY_SYSTEM: T1, UbP_C Q219A/I221A (human, UniProt Q8WUN7 129-234, Q219A | I221A)
# T1 sequence: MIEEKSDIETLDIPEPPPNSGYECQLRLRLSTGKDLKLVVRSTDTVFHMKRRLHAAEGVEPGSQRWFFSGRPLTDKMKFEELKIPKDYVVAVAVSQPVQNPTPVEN
# ASSAY_COMMENT: NMR
QUANTITY: Kd

# BINDER, VALUE
data = [
    ("USP5_UBA1 (first UBA domain of USP5, residues 631-692) (domain or fragment) MLDESVIIQLVEMGFPMDACRKAVYYTGNSGAEAAMNWVMSHMDDPDFANPLILPGSSGPGS", "770 µM"),
]

Value source: paper PMC4160250
